// data source = patent US12398154B2

# assay_target: KRas G12D (Homo sapiens, UniProt P01116, G12D);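 note: TR-FRET displacement binding assay on KRas, read after a one-hour incubation at room temperature, IC50 fitted from percent-of-control values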
# Sequence (P01116 1-169 isoform P01116-2 G12D): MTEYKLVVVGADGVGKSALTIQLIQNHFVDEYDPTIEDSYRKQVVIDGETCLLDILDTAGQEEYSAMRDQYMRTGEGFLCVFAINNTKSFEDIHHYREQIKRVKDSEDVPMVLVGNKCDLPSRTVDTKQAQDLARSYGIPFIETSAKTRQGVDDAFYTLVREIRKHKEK
# procedure_details: biochemical
Documented pIC50 across a set of molecules
pIC50 here: minus log base 10 of the concentration, concentration in moles per litre.

Previously resolved entries follow.
[
  {
    "molecule": "CC1(O)CCCN(c2nc(OCC34CCCN3CCC4)nc3c(F)c(-c4cccc5scnc45)ncc23)C1 (stereo not drawn) [Example 68]",
    "recorded_value": 4.94
  },
  {
    "molecule": "CCc1c(F)ccc2cc(O)cc(-c3ncc4c(N(C)Cc5cn[nH]c5)nc(OC[C@@]56CCCN5C[C@H](F)C6)nc4c3F)c12 [Example 163]",
    "recorded_value": 7.02
  },
  {
    "molecule": "OC12CC(Nc3nc(OCC45CCCN4CCC5)nc4c(F)c(-c5cccc6cccc(F)c56)ncc34)(C1)C2 [Example 90]",
    "recorded_value": 4.40
  },
  {
    "molecule": "CCc1c(F)ccc2cc(O)cc(-c3ncc4c(Nc5ccon5)nc(OC[C@@]56CCCN5C[C@H](F)C6)nc4c3F)c12 [Example 152]",
    "recorded_value": 6.76
  },
  {
    "molecule": "Fc1c(-c2cccc3cccc(Cl)c23)ncc2c(N3CC(n4ccnc4)C3)nc(OCC34CCCN3CCC4)nc12 [Example 101]",
    "recorded_value": 4.82
  }
]

Enquiry: Please look up its pIC50: O=C1CC2(CCCN(c3nc(OCC45CCCN4CCC5)nc4c(F)c(-c5cccc6cccc(Cl)c56)ncc34)C2)CN1 (stereo not drawn) [Example 2]
Return: 6.20

Enquiry: Query C[C@@H]1C[C@@H](O)CN(c2nc(OCC34CCCN3CCC4)nc3c(F)c(-c4cccc5cccc(F)c45)ncc23)C1 [Example 112] next
Return: 4.43

Enquiry: Query N#Cc1cccnc1N1CCN(c2nc(OCC34CCCN3CCC4)nc3c(F)c(-c4cccc5cccc(F)c45)ncc23)CC1 [Example 209] next
Return: 4.20

Enquiry: Query Fc1c(-c2cccc3cccc(F)c23)ncc2c(NCc3nnc4ncccn34)nc(OCC34CCCN3CCC4)nc12 [Example 121] next
Return: 4.37

Enquiry: Query CCc1c(F)ccc2cc(O)cc(-c3ncc4c(N5CC6CC(O)CC5C6)nc(OC[C@@]56CCCN5C[C@H](F)C6)nc4c3F)c12 (stereo partly drawn) [Example 58] next
Return: 8.22
